src = PubChem BioAssay (NCATS)

Test system: JEG-3
Assay: Primary qHTS to identify gynecologic anti-cancer compounds using libraries of approved drugs and bioactive compounds (AID 1345084); note: nearly all actives have a fitted effect of over 55% in size
Conditions: Gynecologic cancer cell panel viability, ATPlite luminescence, 48 h; series mostly up to 57.5 µM
Inconclusive results are not listed. Active and inactive are the calls of the source. Calls come from the whole dose curve; as a rule, active = well fitted cell-killing curve with a large enough effect; inconclusive = small, poorly fitted or top-dose-only effect, or effect the other way; inactive = flat fitted curve, though single readings scatter.
Outcomes: label 1 (active), label 0 (inactive)

compound=COc1cc(/C=C/C(N)=O)cc(OC)c1OC category="label 0"
compound=CC(=O)OCC(=O)[C@@]1(O)[C@H](OC(C)=O)C[C@H]2[C@@H]3CCC4=CC(=O)C=C[C@]4(C)[C@@]3(F)[C@@H](O)C[C@@]21C category="label 0"
compound=CCOC(=O)N1CCC(Nc2ccc(Cl)cc2N)CC1 category="label 0"
compound=COC(=O)/C=C\C(=O)OC category="label 0"
compound="NC(=O)COCCN1CCN(C(c2ccccc2)c2ccc(Cl)cc2)CC1 (centres undefined)" category="label 0"
compound=CO/N=C(/C(=O)N[C@@H]1C(=O)N2C(C(=O)OCOC(=O)C(C)(C)C)=C(C)CS[C@H]12)c1csc(N)n1 category="label 0"
compound="C[C@H](N)C(=O)N[C@@H](C)C(=O)NC1[C@H]2CN(c3nc4c(cc3F)c(=O)c(C(=O)O)cn4-c3ccc(F)cc3F)C[C@@H]12 (some centres undefined)" category="label 0"
compound=COCCc1ccccn1 category="label 0"
compound=O=C(O)/C=C(\CC(=O)O)C(=O)O category="label 0"
compound=O=C1CCCc2c(O)cccc21 category="label 0"
compound=C#Cc1ccc(-c2ccccc2F)cc1 category="label 0"
compound="CC(Oc1c(Cl)cccc1Cl)C1=NCCN1 (centres undefined)" category="label 0"
compound=O=C(O)c1ccccc1S category="label 0"
compound=COc1ccccc1N1CCN(CCN2C(=O)CC3(CCCC3)CC2=O)CC1 category="label 0"
compound="COc1cc(C(=O)OC(COCCC(C)C)CN2CCOCC2)cc(OC)c1OC (centres undefined)" category="label 0"
compound="CCCC(=O)OCOC(=O)C1=C(C)NC(C)=C(C(=O)OC)C1c1cccc(Cl)c1Cl (centres undefined)" category="label 0"
compound="CCCCCN(CCCOC)C(=O)C(CCC(=O)O)NC(=O)c1ccc(Cl)c(Cl)c1 (centres undefined)" category="label 0"
compound=CCOC(=O)C(=O)c1csc(NC=O)n1 category="label 0"
compound=CCS(=O)(=O)c1ccc(OC)c(C(=O)OC)c1 category="label 0"
compound=Nc1c(NC/C=C\COc2cc(CN3CCCCC3)ccn2)c(=O)c1=O category="label 0"
compound=CCN1CCN(C(=O)N[C@@H](C(=O)N[C@@H]2C(=O)N3[C@@H]2SC(C)(C)[C@H]3C(=O)O)c2ccccc2)C(=O)C1=O category="label 0"
compound=O=C(O)C1CCC1 category="label 0"
compound=CN(C)CCN(Cc1ccsc1)c1ccccn1 category="label 0"
compound=Cc1nc(N)nc(N)c1-c1ccc(Cl)c(Cl)c1 category="label 1"
